System: Acinetobacter baumannii ATCC 17978
Assay: Antimicrobial susceptibility testing: 90% growth inhibitory concentration (IC90) determination
Assay type: cell-based
Conditions: Acinetobacter baumannii, ATCC17978, 16 h, 90% growth inhibitory concentration; Acinetobacter baumannii ATCC17978; Iso-Sensitest broth, OD 600 nm over 16h; read-out: ATCC17978 IC90
assay_endpoint: IC90 (µM)
Enter your answer as a number in µM; do not include the unit.

Task: Value lookup for IC90; key = N#CCOc1ccc(-c2cnc3c(Nc4ccc(C(=O)NCCCCN)c(Cl)c4)nccn23)c(F)c1F
Output: 0.047

Task: Value lookup for IC90; key = CCc1cc(Nc2nccn3c(-c4ccc(Oc5ncccn5)c(F)c4F)cnc23)ccc1C(=O)NCCCNC(=O)C1CCNCC1
Output: 0.29

Task: Value lookup for IC90; key = COc1ccc(-c2cnc3c(Nc4ccc(C(=O)N(C)CCN)cc4)nccn23)cc1
Output: 5.1

Task: Value lookup for IC90; key = COc1ccc(-c2cnc3c(Nc4ccc(C(=O)N(C)C)cc4)nccn23)cc1Cl
Output: 0.73

----------
Test system: Acinetobacter baumannii ATCC 17978
Assay: Antimicrobial susceptibility testing: 90% growth inhibitory concentration (IC90) determination
Assay type: cell-based
Details: Acinetobacter baumannii, ATCC17978, 16 h, 90% growth inhibitory concentration; Acinetobacter baumannii ATCC17978; Iso-Sensitest broth, OD 600 nm over 16h; read-out: ATCC17978 IC90
Structures can show the parent of a compound that is named as a salt.
Task for the reader: assign each of the following molecules its reported IC90.
Enter your answer as a number in nM; do not include the unit.

Task: Value lookup for IC90; key = CCc1cc(Nc2nccn3c(-c4ccc(OC)c(F)c4F)cnc23)ccc1C(=O)NCCC(=O)N1CCN[C@H](CO)C1
Output: 150

Task: Value lookup for IC90; key = COc1ccc(-c2cnc3c(Nc4ccc(C(=O)NCCCN5CCNC(C(=O)O)C5)c(Cl)c4)nccn23)c(F)c1F (stereo not shown)
Output: 1300

Task: Value lookup for IC90; key = Cc1cc(Nc2nccn3c(-c4ccc(OC(F)F)cc4)cnc23)ccc1C(=O)NCC1(O)CCNCC1
Output: 4900

Task: Value lookup for IC90; key = CCc1cc(Nc2nccn3c(-c4ccc(OC(F)F)c(F)c4F)cnc23)ccc1C(=O)NCC(=O)NCCN(C)C
Output: 360

Task: Value lookup for IC90; key = COc1ccc(-c2cnc3c(Nc4ccc(C(=O)NCCCN5CCNCC5)c(C)c4)nccn23)c(F)c1F
Output: 120

Task: Value lookup for IC90; key = COc1ccc(-c2cnc3c(Nc4ccc(C(=O)N(C)CC(=O)N5CCNC(C(=O)O)C5)c(C)c4)nccn23)cc1F (stereo not shown) [Example 173, hydrochloride]
Output: 8600

Task: Value lookup for IC90; key = COc1ccc(-c2cnc3c(Nc4ccc5c(c4)CCN(CCCO)C5=O)nccn23)c(F)c1F
Output: 290

----------
Tested on: Acinetobacter baumannii ATCC 17978
Assay: Antimicrobial susceptibility testing: 90% growth inhibitory concentration (IC90) determination
Type: cell-based
Conditions: Acinetobacter baumannii, ATCC17978, 16 h, 90% growth inhibitory concentration; Acinetobacter baumannii ATCC17978; Iso-Sensitest broth, OD 600 nm over 16h; read-out: ATCC17978 IC90
Structures can show the parent of a compound that is named as a salt.
Task for the reader: assign each of the following compounds its reported IC90.
Enter your answer as a number in nM; do not include the unit.

Task: Value lookup for IC90; key = CCc1cc(Nc2nccn3c(-c4ccc(OC)c(F)c4F)cnc23)ccc1C(=O)NCC1CCN(C(C)(C)C(=O)O)CC1
Output: 320

Task: Value lookup for IC90; key = CCc1cc(Nc2nccn3c(-c4ccc(OC)c(F)c4F)cnc23)ccc1C(=O)NCCCNC(=O)[C@H](CCCNC(=N)N)NC(=O)CC[C@H](N)C(=O)O [Example 407, trihydrochloride]
Output: 940

Task: Value lookup for IC90; key = COc1ccc(-c2cnc3c(Nc4ccc5c(c4)CCN(CCCN)C5=O)nccn23)c(F)c1F
Output: 290

----------
Task for the reader: assign each of the following compounds its reported log10(IC90).
Tested on: Acinetobacter baumannii ATCC 17978
Assay: Antimicrobial susceptibility testing: 90% growth inhibitory concentration (IC90) determination
Format: cell-based
Details: Acinetobacter baumannii, ATCC17978, 16 h, 90% growth inhibitory concentration; Acinetobacter baumannii ATCC17978; Iso-Sensitest broth, OD 600 nm over 16h; read-out: ATCC17978 IC90
Structures can show the parent of a compound that is named as a salt.
Hi team, quick reminder: these entries are log10 of IC90 (nM).

Task: Value lookup for log10(IC90); key = CCc1cc(Nc2nccn3c(-c4ccc(Oc5ccccn5)c(F)c4F)cnc23)ccc1C(=O)N[C@@H](C)CNC(=O)[C@@H](N)CCNC(=N)N
Output: 2.85

Task: Value lookup for log10(IC90); key = CCc1cc(Nc2nccn3c(-c4ccc(OC)c(F)c4F)cnc23)ccc1C(=O)NC/C=C/CN
Output: 1.38

Task: Value lookup for log10(IC90); key = CCc1cc(Nc2nccn3c(-c4ccc(OC)c(F)c4F)cnc23)ccc1C(=O)NCCNC(=O)[C@@H](N)CCCNC(=N)N [Example 121, trifluoroacetate]
Output: 2.45

Task: Value lookup for log10(IC90); key = COc1ccc(-c2cnc3c(Nc4ccc(C(=N)NCC(N)=O)c(C)c4)nccn23)cc1
Output: 2.74

Task: Value lookup for log10(IC90); key = CCc1cc(Nc2nccn3c(-c4ccc(OC)c(F)c4F)cnc23)ccc1C(=O)NCCC1CCN(CCC(=O)O)CC1
Output: 2.43

Task: Value lookup for log10(IC90); key = CCc1cc(Nc2nccn3c(-c4ccc(OC)c(F)c4F)cnc23)ccc1C(=O)NCCCCCN [Example 418, hydrochloride]
Output: 1.52

Task: Value lookup for log10(IC90); key = CCc1cc(Nc2nccn3c(-c4ccc(OCC#N)c(F)c4F)cnc23)ccc1C(=O)NCCNC(=O)CCN [Example 137, formate]
Output: 1.85

----------
System: Acinetobacter baumannii ATCC 17978
Assay: Antimicrobial susceptibility testing: 90% growth inhibitory concentration (IC90) determination
Type: cell-based
Conditions: Acinetobacter baumannii, ATCC17978, 16 h, 90% growth inhibitory concentration; Acinetobacter baumannii ATCC17978; Iso-Sensitest broth, OD 600 nm over 16h; read-out: ATCC17978 IC90
assay_endpoint: IC90 (nM)
Enter your answer as a number in nM; do not include the unit.

Task: Value lookup for IC90; key = COc1ccc(-c2cnc3c(Nc4ccc(C(=O)N(C)CCCC5OCC(N)CO5)c(C)c4)nccn23)cc1F (stereo not shown)
Output: 340

Task: Value lookup for IC90; key = Cc1cc(Nc2nccn3c(-c4ccc(Cl)c(F)c4F)cnc23)ccc1C(=O)NCC1CCNCC1
Output: 2900

Task: Value lookup for IC90; key = CC(=O)N1CCC(CCN(C)C(=O)c2ccc(Nc3nccn4c(-c5ccc(OC(F)F)cc5)cnc34)cc2C)CC1
Output: 530

Task: Value lookup for IC90; key = COc1ccc(-c2cnc3c(Nc4ccc(C(=O)NCCNC(=O)CC[C@H]5C(=O)N5C)c(C)c4)nccn23)c(F)c1F
Output: 540

----------
Test system: Acinetobacter baumannii ATCC 17978
Assay: Antimicrobial susceptibility testing: 90% growth inhibitory concentration (IC90) determination
Format: cell-based
Conditions: Acinetobacter baumannii, ATCC17978, 16 h, 90% growth inhibitory concentration; Acinetobacter baumannii ATCC17978; Iso-Sensitest broth, OD 600 nm over 16h; read-out: ATCC17978 IC90
Structures can show the parent of a compound that is named as a salt.
assay_endpoint: log10 IC90 (log10 of the value in nM)
Hi team, quick reminder: these entries are log10 of IC90 (nM).

Task: Value lookup for log10 IC90; key = CCc1cc(Nc2nccn3c(-c4ccc(OC)c(F)c4F)cnc23)ccc1C(=O)NCC[C@H](C)NC(=O)[C@@H](N)CCCNC(=N)N [Example 336, hydrochloride]
Output: 2.68

Task: Value lookup for log10 IC90; key = COc1ccc(-c2cnc3c(Nc4ccc(C(=O)N(C)CCC5CCNCC5)c(C)c4)nccn23)cc1 [Example 182]
Output: 2.26

Task: Value lookup for log10 IC90; key = CCc1cc(Nc2nccn3c(-c4ccc(OC)c(F)c4Cl)cnc23)ccc1C(=O)NCCNC(=O)[C@@H](N)CCCNC(=N)N [Example 126, formate]
Output: 2.32

Task: Value lookup for log10 IC90; key = COc1ccc(-c2cnc3c(Nc4ccc(C(=O)NCCCCCN)c(Cl)c4)nccn23)c(F)c1F [Example 492, hydrochloride]
Output: 1.64

Task: Value lookup for log10 IC90; key = CNC(=O)c1ccc(Nc2nccn3c(-c4ccc(OC(F)F)cc4)cnc23)cc1Cl [Example 110]
Output: 2.40

Task: Value lookup for log10 IC90; key = COc1ccc(-c2cnc3c(Nc4ccc(C(=O)N[C@@H](C)CNC(C)=N)c(C)c4)nccn23)c(F)c1F [Example 488]
Output: 2.46

Task: Value lookup for log10 IC90; key = CCc1cc(Nc2nccn3c(-c4ccc(OCC#N)c(F)c4F)cnc23)ccc1C(=O)NCCNC(=O)[C@@H](N)CCCN [Example 140, formate]
Output: 2.23

Task: Value lookup for log10 IC90; key = Cc1cc(Nc2nccn3c(-c4ccc(OC(F)F)cc4)cnc23)ccc1C(=O)NCC1CCN(C)CC1 [Example 198]
Output: 2.86

Task: Value lookup for log10 IC90; key = CNC(=O)c1ccc(Nc2nccn3c(-c4ccc(Cl)cc4)cnc23)cc1C [Example 185]
Output: 2.36

Task: Value lookup for log10 IC90; key = CCc1cc(Nc2nccn3c(-c4ccc(OC)c(F)c4F)cnc23)ccc1C(=O)NCC(C)CNC(=O)[C@@H](N)CCNC(=N)N (mixture of isomers) [Example 401, diformate]
Output: 2.34

Task: Value lookup for log10 IC90; key = Cc1cc(Nc2nccn3c(-c4ccc(OC(F)F)cc4)cnc23)ccc1C(=O)N[C@H](C)CN [Example 270]
Output: 3.89

Task: Value lookup for log10 IC90; key = CCc1cc(Nc2nccn3c(-c4ccc(OC)c(F)c4F)cnc23)ccc1C(=O)NCC(=O)N1CCN[C@H](CO)C1 [Example 464]
Output: 2.38

Task: Value lookup for log10 IC90; key = COc1ccc(-c2cnc3c(Nc4ccc(C(=O)NCCCCCCN)c(Cl)c4)nccn23)c(F)c1F [Example 495, hydrochloride]
Output: 1.53

Task: Value lookup for log10 IC90; key = CCc1cc(Nc2nccn3c(-c4ccc(Oc5ncccn5)c(F)c4F)cnc23)ccc1C(=O)NCCNC(=O)CCN [Example 431, formic acid]
Output: 2.72
